Test system: plasma protein
Assay: Plasma protein binding in vitro
Assay type: in vitro ADME
endpoint: fraction unbound

Q. GET /values?readout=fraction unbound&item= C[C@@H]1[C@H](c2ccccc2)C[C@H](NC(=O)c2cnc3c(c2)C[C@@]2(C3)C(=O)Nc3ncccc32)C(=O)N1CC(F)(F)F
A. 0.13

###

Experiment: Study A: drug interaction PK with verapamil or ketoconazole
Assay type: in vivo, human
Conditions: human, plasma, oral, ubrogepant 20 mg + ketoconazole 400 mg; read-out: AUC0-∞, mean (SD)
endpoint: AUC(0-inf) (ng·h/mL)
Write the answer as a number in ng·h/mL, unit excluded.

Q. # AUC(0-inf) lookup, item C[C@@H]1[C@H](c2ccccc2)C[C@H](NC(=O)c2cnc3c(c2)C[C@@]2(C3)C(=O)Nc3ncccc32)C(=O)N1CC(F)(F)F [ubrogepant]
A. 2070

###

Assay: Phase 1 food effect study, 100 mg tablet fed vs fasted
Assay type: in vivo, human
Conditions: both sexes, human, plasma, oral, 100 mg, 1 × 100 mg tablet, fed; read-out: AUC0-inf, geometric mean (geometric CV %)
endpoint: AUC(0-inf) (ng·h/mL)
The answer is to be given in ng·h/mL; state only the numeric part.

Q. Reported AUC(0-inf), compound C[C@@H]1[C@H](c2ccccc2)C[C@H](NC(=O)c2cnc3c(c2)C[C@@]2(C3)C(=O)Nc3ncccc32)C(=O)N1CC(F)(F)F : ____
A. 1340

###

Assay: Study B: drug interaction PK with rifampin
Format: in vivo, human
Conditions: human, plasma, oral, rifampin 600 mg in combination with ubrogepant 100 mg; read-out: Geometric LSM Cmax, Test
endpoint: Cmax (ng/mL)
Dear colleague, please return just the value in ng/mL, with no unit written.

Q. For the molecule C[C@@H]1[C@H](c2ccccc2)C[C@H](NC(=O)c2cnc3c(c2)C[C@@]2(C3)C(=O)Nc3ncccc32)C(=O)N1CC(F)(F)F , what Cmax is on record?
A. 118

###

Test: Study B: drug interaction PK with rifampin
Format: in vivo, human
Conditions: human, plasma, oral, 100 mg, ubrogepant 100 mg alone; read-out: Geometric LSM AUC0-∞, Reference
endpoint: AUC(0-inf)

Q. What value of AUC(0-inf) has been reported for the following compound? C[C@@H]1[C@H](c2ccccc2)C[C@H](NC(=O)c2cnc3c(c2)C[C@@]2(C3)C(=O)Nc3ncccc32)C(=O)N1CC(F)(F)F [ubrogepant]
A. 1750 ng·h/mL

###

Experiment: Phase 1 food effect study, 100 mg tablet fed vs fasted
Assay type: in vivo, human
Conditions: both sexes, human, plasma, oral, 100 mg, 1 × 100 mg tablet; read-out: Tmax median difference (fed−fasted)
endpoint: Tmax (h)
Value expressed in h; do not type the unit.

Q. Please look up its Tmax: C[C@@H]1[C@H](c2ccccc2)C[C@H](NC(=O)c2cnc3c(c2)C[C@@]2(C3)C(=O)Nc3ncccc32)C(=O)N1CC(F)(F)F
A. 2

###

Experiment: Phase 1 hepatic impairment PK study, single 100 mg dose
Format: in vivo, human
Conditions: both sexes, human, plasma, po, 100 mg, 100 mg single oral dose; moderate-impaired; read-out: Geometric LSM AUC0-∞, Test
endpoint: AUC(0-inf) (ng·h/mL)
Please state the figure in ng·h/mL; there is no need to write the unit.

Q. Could you tell me which AUC(0-inf) is on file for C[C@@H]1[C@H](c2ccccc2)C[C@H](NC(=O)c2cnc3c(c2)C[C@@]2(C3)C(=O)Nc3ncccc32)C(=O)N1CC(F)(F)F ?
A. 2320

Origin of values: patent US20240180883A1
